# system.under.test: SmPAT1 (Selaginella moellendorffii)
reported.endpoint: pIC50
Note: pIC50 values are expressed as the negative base-10 logarithm of concentration in M.

Tell us which pIC50 value is on record for N[C@@H](Cc1ccccc1)C(=O)O
2.70
